test: Lethal dose in mouse, in groups of ten; type: toxicity, organism-based; settings: in vivo
For each of the molecules below, state its LD50.

Field: example entries. Status: answers known.
molecule	measured value
CCCCCCc1ccc(C2CN=C(NC(=O)OC)N2)cc1 (configuration not stated)	200 mg/kg
COC(=O)NC1=NCC(c2ccccc2)N1C (configuration not stated)	200 mg/kg
COC(=O)NC1=NCC2(CCc3ccccc32)N1C (configuration not stated)	300 mg/kg
COC(=O)NC1=NC(c2ccccc2C)CN1 (configuration not stated)	300 mg/kg
CC(C)OC(=O)NC1=NC(c2ccccc2F)CN1C (configuration not stated)	700 mg/kg

State the recorded LD50 for every item in the following list.
1. CN(C)CCC=C1c2ccccc2COc2ccccc21 [DOXEPIN]
2. COC(=O)NC1=NC(c2ccc(C)cc2)CN1 (configuration not stated)
3. CCOC(=O)NC1=NC(c2ccccc2)CN1C (configuration not stated)
4. COC(=O)NC1=NC(c2cccc(C)c2)CN1C (configuration not stated)
5. CCCCCCOC(=O)NC1=NC(c2ccc(Cl)cc2)CN1 (configuration not stated)
6. COC(=O)NC1=NC(c2ccccc2)CN1C (configuration not stated)
7. CC(C)COC(=O)NC1=NC(c2ccccc2)CN1C (configuration not stated)
8. COC(=O)NC1=NC(c2cccc(Cl)c2)CN1 (configuration not stated)

1: 50 mg/kg; 2: > 1000 mg/kg; 3: 200 mg/kg; 4: 475 mg/kg; 5: 200 mg/kg; 6: 200 mg/kg; 7: 247 mg/kg; 8: 300 mg/kg

Hi! Can you tell me LD50 for each of these molecules?
1. CC(C)OC(=O)NC1=NC(c2ccccc2Cl)CN1C (configuration not stated)
2. COC(=O)NC1=NC(c2cccc(Br)c2)CN1 (configuration not stated)
3. CCOc1ccccc1C1CN=C(NC(=O)OC)N1 (configuration not stated)
4. CCN1CC(c2ccccc2)N=C1NC(=O)OC (configuration not stated)
5. CCOC(=O)NC1=NC(c2ccc(C(C)C)cc2)CN1 (configuration not stated)

700 mg/kg
300 mg/kg
700 mg/kg
117 mg/kg
200 mg/kg

---

species on record: Mus musculus; assay: Compound was evaluated for maximal electroshock antagonism (MES) against mice (values in parentheses indicates 95% confidence limits); type: functional
measure: ED50 (mg/kg)
Give bare numbers, in mg/kg.

Below are some compounds; for each one, tell me its ED50.
1. CN(C)CCC=C1c2ccccc2CCc2ccccc21 [AMITRIPTYLINE]
2. O=C1NC(=O)C(c2ccccc2)(c2ccccc2)N1 [PHENYTOIN]
3. CN1C(=O)CN=C(c2ccccc2)c2cc(Cl)ccc21 [DIAZEPAM]
4. CCC1(c2ccccc2)C(=O)NC(=O)NC1=O [PHENOBARBITAL]

14
6
7
15

---

target: Norepinephrine transporter (Rattus norvegicus, UniProt Q9WTR4); experiment: Inhibition of the NE [3H]norepinephrine uptake by rat brain slices In vitro
Sequence (Q9WTR4 whole entry): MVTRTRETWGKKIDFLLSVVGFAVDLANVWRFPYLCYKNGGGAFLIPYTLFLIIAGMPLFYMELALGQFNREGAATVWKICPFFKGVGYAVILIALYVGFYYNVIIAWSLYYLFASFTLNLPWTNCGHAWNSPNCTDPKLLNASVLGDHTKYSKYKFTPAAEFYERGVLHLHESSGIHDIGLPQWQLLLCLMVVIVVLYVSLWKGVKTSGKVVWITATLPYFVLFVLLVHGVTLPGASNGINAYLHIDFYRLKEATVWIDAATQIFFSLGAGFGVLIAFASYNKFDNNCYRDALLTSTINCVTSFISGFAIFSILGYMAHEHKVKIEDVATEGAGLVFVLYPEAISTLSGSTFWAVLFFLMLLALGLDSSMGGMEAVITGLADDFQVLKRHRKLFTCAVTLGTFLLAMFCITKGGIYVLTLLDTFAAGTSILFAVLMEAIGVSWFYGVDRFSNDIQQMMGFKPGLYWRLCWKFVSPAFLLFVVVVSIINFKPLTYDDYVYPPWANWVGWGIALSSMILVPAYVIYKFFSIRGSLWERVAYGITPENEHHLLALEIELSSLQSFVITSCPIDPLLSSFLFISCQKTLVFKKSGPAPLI
measure: pIC50
Numbers only, as −log10 of the molar value.

Reported pIC50 for CN(C)CCC=C1c2ccccc2CCc2ccccc21 [AMITRIPTYLINE] was 5.60

---

species: Mus musculus; test: Mouse behavior activity was determined; Dwk=Depressant Weak; type: functional, organism-based
measure: Mouse behavior activity

Example results:
compound	Mouse behavior activity
COC(=O)NC1=NC(c2ccccc2)CN1Cc1ccccc1 (stereo not drawn)	Depressant Weak
COC(=O)NC1=NC(c2ccccc2F)CN1C (stereo not drawn)	Depressant Weak
COC(=O)NC1=NC(c2cc(F)ccc2F)CN1 (stereo not drawn)	Depressant - weak
COC(=O)NC1=NC(c2cc(C)ccc2C)CN1 (stereo not drawn)	Depressant - weak
COC(=O)NC1=NC(c2cc(OC)cc(OC)c2)CN1 (stereo not drawn)	Depressant - weak

Please give Mouse behavior activity for each item listed below.
1. COC(=O)NC1=NC(c2ccc(C(C)C)cc2)CN1 (stereo not drawn)
2. COC(=O)NC1=NC(c2ccc(C(F)(F)F)cc2)CN1 (stereo not drawn)

Depressant - weak
Depressant - weak

Batch lookup, Mouse behavior activity per entry.
1. COC(=O)NC1=NCC2(CCc3ccccc32)N1C (stereo not drawn)
2. COC(=O)NC1=NC2c3ccccc3CC2N1 (stereo not drawn)
3. COC(=O)NC1=NC(c2ccc([S+](C)[O-])cc2)CN1C (stereo not drawn)
4. CCCCCCc1ccc(C2CN=C(NC(=O)OC)N2)cc1 (stereo not drawn)
5. CCOC(=O)NC1=NC(c2ccc(C(C)C)cc2)CN1 (stereo not drawn)

Depressant Weak
Depressant Weak
Depressant Weak
Depressant - weak
Depressant - weak
